Data origin: PubChem BioAssay (NCI)

- System: OVCAR-4 ovarian
- assay_overview: NCI tumour cell line growth inhibition, 48 h
Items are presented alongside their recorded TGI.

stdin: Using OVCAR-4 ovarian as the test system, report measured TGI of COC(=O)[C@H]1CC(=O)C=C2CCCC21 (stereo partly specified) .
stdout: > 100 µM

stdin: Using OVCAR-4 ovarian as the test system, report measured TGI of `N#Cc1c(N)nc2c(N=Nc3ccccc3)c(N)nn2c1Nc1ccccc1` .
stdout: 46.4 µM

stdin: Using OVCAR-4 ovarian as the test system, report measured TGI of `COC(=N)c1ncn(Cc2ccccc2)c1N` .
stdout: > 100 µM

stdin: Using OVCAR-4 ovarian as the test system, report measured TGI of COc1ccc(C2=NNC(c3cc(Cc4ccc(O)c(C5CC(c6ccc(OC)cc6)=NN5)c4)ccc3O)C2)cc1 (stereo unspecified) .
stdout: > 100 µM

stdin: Using OVCAR-4 ovarian as the test system, report measured TGI of `CC(C)(C)OC(=O)N(CCCCNC(=O)c1ccccc1)CCCNC(=O)c1ccccc1` .
stdout: > 100 µM

Others:
stdin: Using OVCAR-4 ovarian as the test system, report measured TGI of `CC(=O)Nc1c(I)c(C(=O)O)c(I)c(N(C)C(C)=O)c1I` .
stdout: > 100 µM

stdin: Using OVCAR-4 ovarian as the test system, report measured TGI of `COc1ccc(C(=O)/C=C/c2ccc(OCC#N)cc2)cc1OC` .
stdout: > 100 µM

stdin: Using OVCAR-4 ovarian as the test system, report measured TGI of `O=C(Nc1sccc1S(=O)(=O)c1ccc(Cl)cc1)c1ccc(Cl)cc1Cl` .
stdout: > 100 µM

stdin: Using OVCAR-4 ovarian as the test system, report measured TGI of `COC(=O)CSc1n[nH]c(-c2ccccc2)n1` .
stdout: > 100 µM

stdin: Using OVCAR-4 ovarian as the test system, report measured TGI of N#CC12CC=C(c3ccccc3)N=C1NC(c1ccccc1)=CC2 (stereo unspecified) .
stdout: > 100 µM

stdin: Using OVCAR-4 ovarian as the test system, report measured TGI of CS(=O)/C(C#N)=C\C=C\c1cccc(Cl)c1 (stereo unspecified) .
stdout: 21.1 µM

----------
- Tested on: HCC-2998 colon
- assay_overview: NCI tumour cell line growth inhibition, 48 h
readout_name: GI50

# annotated cases, reported GI50 shown
stdin: Consider the compound `Cc1cc(NS(=O)(=O)c2ccc(NC(=O)COc3ccc(-c4cc5ccccc5[nH]4)cc3)cc2)no1` and give its recorded GI50.
stdout: 2070 nM

stdin: Consider the compound `O=C1c2ccccc2-c2c1c1c(O)cccc1n2CCCc1ccccc1` and give its recorded GI50.
stdout: 2350 nM

stdin: Consider the compound `Cc1ccc2c(n1)C(=O)C(Cl)=C(Nc1ccc(N3CCN(C)CC3)cc1)C2=O` and give its recorded GI50.
stdout: 4540 nM

Below: the item to evaluate.
stdin: Consider the compound CC(=O)NC1CCCN(O)C(=O)/C=C(/C)CCOC(=O)C(NC(C)=O)CCCN(O)C(=O)/C=C(/C)CCOC(=O)C(NC(C)=O)CCCN(O)C(=O)/C=C(/C)CCOC1=O.[Fe] (centres undefined) and give its recorded GI50.
stdout: > 100000 nM

----------
- Tested on: MDA-MB-435
- assay_overview: NCI tumour cell line growth inhibition, 48 h
*1 amine or outer side, *2 acyl side, *3 side chain or, on linkers, in order; H or OH if unused. Where a SMILES comes first, the peptide text is derived from it. Bridges are numbered along the chain shown (N, C = ends). Roman numbers before positions name the chains, in order. X23 = CCCCCCCCCCCCCCC(=O)NC(CCCCN[*:2])C(=O)CN1CCCC1C(=O)[*:1]
Items are presented alongside their recorded TGI.

stdin: Consider the molecule CCCCCCCCCCCCCCC(=O)NC(CCCCNC(=O)C1CCCN1C(=O)C(CCCCN)NC(=O)C(CCCCN)NC(=O)C(CCCCN)NC(=O)C(CCCNC(=N)N)NC(=O)C(CCCCN)NC(=O)C(N)C(C)C)C(=O)CN1CCCC1C(=O)NCC(=O)NC(Cc1ccccc1)C(=O)N1CCCC1C(=O)NC(CO)C(=O)NC(Cc1ccc(O)cc1)C(=O)NC(CCCCN)C(=O)NC(CC(C)C)C(=O)NC(CCCNC(=N)N)C(=O)N1CCCC1C(=O)NCC(N)=O (stereo not drawn) (I: GFPSYKLRPG-NH2 / II: H-VKRKKKP; linker I:N-II:C via X23; configuration not given here) and give its recorded TGI.
stdout: 41.6 µM

stdin: Consider the molecule `COc1cc2c(cc1OCc1ccccc1)N=C[C@@H]1C[C@@H](F)CN1C2=O` and give its recorded TGI.
stdout: 2.39 µM

stdin: Consider the molecule `CCn1c(SCC(=O)NNC(=S)Nc2ccc(Cl)cc2)nc2ccccc2c1=O` and give its recorded TGI.
stdout: > 100 µM

stdin: Consider the molecule CC12OC3(C(O)C1O)C(C(=O)O[C@H]3CO[Si](C)(C)C(C)(C)C)C2S(=O)(=O)c1ccccc1 (stereo partly drawn) and give its recorded TGI.
stdout: > 100 µM

stdin: Consider the molecule `O=c1[nH]cc(CO)c(=O)[nH]1` and give its recorded TGI.
stdout: > 100 µM

stdin: Consider the molecule `COC(=O)c1ccc(-n2c(C)nc(=O)c(-c3ccccc3)c2C)cc1` and give its recorded TGI.
stdout: > 100 µM

stdin: Consider the molecule `Nc1nc(NNc2ccccc2F)cc(=O)[nH]1` and give its recorded TGI.
stdout: > 100 µM

stdin: Consider the molecule `O=C(Nc1sccc1S(=O)(=O)c1ccc(Cl)cc1)c1ccc(Cl)cc1Cl` and give its recorded TGI.
stdout: > 100 µM

Others:
stdin: Consider the molecule `CCCCCCCCn1ccc2cc(NC(=O)Cn3cc(CN4CCC(C)CC4)nn3)ccc21` and give its recorded TGI.
stdout: 3.08 µM

stdin: Consider the molecule `NS(=O)(=O)c1cccc(-c2cc3ccncc3cc2OCc2ccccc2)c1` and give its recorded TGI.
stdout: > 25 µM

stdin: Consider the molecule `c1ccc2c(c1)ncn2CCn1ccnc1` and give its recorded TGI.
stdout: > 100 µM

stdin: Consider the molecule Cn1c2c(c3ccccc31)CC(=O)N1CCCC(C1)CC21OCCO1 (stereo not drawn) and give its recorded TGI.
stdout: > 100 µM

stdin: Consider the molecule `COc1ccc(-c2nnc(Nc3nc(O)c(C4=c5cc(OC(F)(F)F)ccc5=NC4=O)s3)o2)cc1` and give its recorded TGI.
stdout: > 100 µM

stdin: Consider the molecule CC(=O)OCC1OC(N2C(=O)CC(N)=Nc3ccccc32)C(OC(C)=O)C(OC(C)=O)C1OC(C)=O (stereo not drawn) and give its recorded TGI.
stdout: > 100 µM

stdin: Consider the molecule NC(Cn1ccc(=O)c(O)c1)C(=O)O (stereo not drawn) and give its recorded TGI.
stdout: > 100 µM

stdin: Consider the molecule CCCCCCCCCCCCNC(=O)[C@H]1CSC(c2cc(Br)cs2)N1 (stereo partly drawn) and give its recorded TGI.
stdout: 1.31 µM

stdin: Consider the molecule `CC(C)(C)OC(=O)N(CCCCNC(=O)c1ccccc1)CCCNC(=O)c1ccccc1` and give its recorded TGI.
stdout: > 100 µM

stdin: Consider the molecule COc1ccc(N2C(=O)C(C#N)=C(SC)C(C#N)C2=O)cc1 (stereo not drawn) and give its recorded TGI.
stdout: > 100 µM

----------
- Test system: SNB-19 CNS
- assay_overview: NCI tumour cell line growth inhibition, 48 h
readout_name: GI50

# annotated cases, reported GI50 shown
stdin: Consider the compound `O=S1CCN(Cc2ccc(-c3ccc4ncnc(Nc5ccc(OCc6ccccc6)c(F)c5)c4c3)o2)CC1` and give its recorded GI50.
stdout: 23.4 µM

stdin: Consider the compound `Cc1cc(N2CCN(C)CC2)nc(N(CCNc2ccnc3cc(Cl)ccc23)Cc2ccco2)n1` and give its recorded GI50.
stdout: 4.92 µM

stdin: Consider the compound `Cc1cc(NS(=O)(=O)c2ccc(NC(=O)COc3ccc(-c4cc5ccccc5[nH]4)cc3)cc2)no1` and give its recorded GI50.
stdout: 2.23 µM

stdin: Consider the compound `NS(=O)(=O)c1cccc(-c2cc3ccncc3cc2OCc2ccccc2)c1` and give its recorded GI50.
stdout: 19.1 µM

stdin: Consider the compound `COc1cc2c(cc1OCc1ccccc1)N=C[C@@H]1C[C@@H](F)CN1C2=O` and give its recorded GI50.
stdout: 0.596 µM

Others:
stdin: Consider the compound Nc1nccc2c1ncn2C1C=C(CO)C(O)C1O (stereo not drawn) and give its recorded GI50.
stdout: > 1000 µM

stdin: Consider the compound `Cc1cc(Br)c2nsnc2c1[N+](=O)[O-]` and give its recorded GI50.
stdout: 7.63 µM

stdin: Consider the compound NC(Cc1ccc(O)cc1)C(=O)N/N=C/c1ccc(N(CCCl)CCCl)cc1 (stereo not drawn) and give its recorded GI50.
stdout: 29.9 µM

----------
Items are presented alongside their recorded TGI.
- Test system: SF-539 CNS
- assay_overview: NCI tumour cell line growth inhibition, 48 h
Value expressed in µM; do not type the unit.

stdin: Consider the molecule Nc1ncnc2c1nc(N)n2C1OC(CO)C(O)C1O (stereo not given) and give its recorded TGI.
stdout: 3.98

Others:
stdin: Consider the molecule `O=C1NC2(NC(=O)C1=O)Nc1ccccc1S2` and give its recorded TGI.
stdout: 62.7

stdin: Consider the molecule `COc1cc(-c2nccc3[nH]c(-c4cccc5[nH]ccc45)nc23)cc(OC)c1OC` and give its recorded TGI.
stdout: 0.0139

stdin: Consider the molecule `Cc1cc(CN(Cc2ccccc2)Cc2nc3ccccc3[nH]2)c(O)c(CN(Cc2nc3ccccc3[nH]2)Cc2nc3ccccc3[nH]2)c1` and give its recorded TGI.
stdout: 22.4
